- Method description: CHI Log D procedure
- Assay type: physicochemical
- Experimental conditions: pH 7.4
Assay metric: CHI Log D
I only need the number, thanks.

CC[C@H](C)[C@@H]1NC(=O)C[C@H](C(=O)O)NC(=O)[C@]2(CC=CCCCC3(CCCC=CCCCCCC[C@@](C)(C(=O)N[C@@H](Cc4ccccc4)C(=O)N[C@@H](Cc4csc5ccccc45)C(=O)N[C@@H](CCC(N)=O)C(N)=O)NC(=O)[C@H](CCC(N)=O)NC(=O)[C@H](Cc4ccccc4)NC(=O)[C@H](C)NC(=O)[C@H](C)NC(=O)[C@H](CCC(=O)O)NC(=O)[C@H](CC(=O)O)NC3=O)NC1=O)CCCN2C(C)=O (some centres unmarked) [I-669] :: 2.25

--- query ---
[in] # return recorded CHI Log D for input CC(=O)N1CCC[C@]12CC=CCCCC1(CCCC=CCCCCCC[C@@](C)(C(=O)N[C@@H](Cc3ccccc3)C(=O)N[C@@H](Cc3csc4ccccc34)C(=O)N[C@@H](CCC(N)=O)C(N)=O)NC(=O)[C@H](CCC(N)=O)NC(=O)[C@H](Cc3ccccc3)NC(=O)[C@H](C)NC(=O)[C@H](C)NC(=O)[C@H](CCC(=O)O)NC(=O)[C@H](CCO)NC1=O)NC(=O)[C@H](C)NC(=O)[C@H](CC(=O)O)NC2=O (some centres unmarked) [I-496]
[out] 2.456
